Target: UniProt P22303
Sequence (P22303 whole entry): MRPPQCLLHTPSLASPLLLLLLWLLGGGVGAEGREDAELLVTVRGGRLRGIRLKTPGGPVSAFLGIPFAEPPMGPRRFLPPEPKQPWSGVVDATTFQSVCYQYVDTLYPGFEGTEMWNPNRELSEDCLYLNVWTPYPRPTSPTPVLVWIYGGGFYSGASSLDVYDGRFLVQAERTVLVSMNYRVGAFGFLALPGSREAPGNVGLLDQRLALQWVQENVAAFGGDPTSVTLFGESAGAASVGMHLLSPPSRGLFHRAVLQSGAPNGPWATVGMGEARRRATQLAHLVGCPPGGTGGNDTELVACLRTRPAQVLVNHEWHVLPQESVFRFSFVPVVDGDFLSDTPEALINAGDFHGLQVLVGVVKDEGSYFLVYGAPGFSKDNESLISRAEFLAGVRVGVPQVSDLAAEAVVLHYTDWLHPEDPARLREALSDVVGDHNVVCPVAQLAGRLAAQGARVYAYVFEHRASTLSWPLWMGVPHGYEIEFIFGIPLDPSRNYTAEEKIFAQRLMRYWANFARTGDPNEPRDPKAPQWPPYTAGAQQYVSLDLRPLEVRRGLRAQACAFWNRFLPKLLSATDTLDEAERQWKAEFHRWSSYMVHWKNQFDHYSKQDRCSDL
Experiment: Inhibition of human recombinant acetylcholinesterase expressed in HEK-293 cells using AMTch as substrate after 30 mins by spectrophotometric method
pIC50: −log10 of the molar value.

entry-smiles	pIC50
Cc1cc(N2CCCCC2)nc2ccccc12	6.08

* * *

Molecular target: Short transient receptor potential channel 7 (Mus musculus)
Sequence (Q9WVC5 whole entry): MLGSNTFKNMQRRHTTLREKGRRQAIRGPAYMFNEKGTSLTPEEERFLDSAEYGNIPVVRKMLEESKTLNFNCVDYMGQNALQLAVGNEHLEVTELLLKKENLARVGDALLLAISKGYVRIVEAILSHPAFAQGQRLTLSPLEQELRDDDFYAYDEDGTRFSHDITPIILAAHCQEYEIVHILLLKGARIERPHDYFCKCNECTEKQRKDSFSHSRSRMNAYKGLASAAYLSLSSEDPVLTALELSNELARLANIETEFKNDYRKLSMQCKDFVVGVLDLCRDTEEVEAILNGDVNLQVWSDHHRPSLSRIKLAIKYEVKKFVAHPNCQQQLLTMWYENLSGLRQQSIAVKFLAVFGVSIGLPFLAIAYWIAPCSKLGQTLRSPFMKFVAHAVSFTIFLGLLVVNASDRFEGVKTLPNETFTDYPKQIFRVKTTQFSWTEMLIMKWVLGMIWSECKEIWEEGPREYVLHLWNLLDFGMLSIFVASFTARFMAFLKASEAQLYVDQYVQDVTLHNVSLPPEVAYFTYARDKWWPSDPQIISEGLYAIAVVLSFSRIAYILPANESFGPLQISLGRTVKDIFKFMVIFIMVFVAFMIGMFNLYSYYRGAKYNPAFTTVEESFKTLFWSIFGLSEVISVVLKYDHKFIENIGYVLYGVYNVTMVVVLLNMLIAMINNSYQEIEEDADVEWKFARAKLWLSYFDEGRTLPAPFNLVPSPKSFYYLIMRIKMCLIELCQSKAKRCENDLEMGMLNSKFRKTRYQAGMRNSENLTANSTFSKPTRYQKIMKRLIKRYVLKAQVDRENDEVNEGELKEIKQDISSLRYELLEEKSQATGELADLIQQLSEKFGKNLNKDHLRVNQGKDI
Assay: Inhibition of YFP-tagged mouse TRPC7 expressed in thapsigargin treated HEK293 cells assessed as reduction in amix-induced calcium level by fluo-4 dye based fluorescence assay
measure-name: IC50 (µM)

compound	measure-name	output-unit	reading
Clc1ccc(Cn2c(CN3CCCC3)nc3ccccc32)cc1 [CLEMIZOLE]	IC50	µM	26.5
